Values from paper PMC7919753

System: GBM10 spheroids
Assay: 3-D spheroid viability assay, GBM10
Format: cell-based, human
Conditions: concentration-dependent
value_kind: activity in spheroids (in words)

> print(dat)
                                   molecule    target.entity                        value.kind            result
1  COc1cc2c(cc1NC(=O)C1CCC(=O)N1S(=O)(=O)c1ccc(C)cc1)oc1cc(Cl)ccc12 (centres unmarked)  GBM10 spheroids  activity in spheroids (in words)       no activity
2  COc1cc2c(cc1NC(=O)C1CCCN1S(=O)(=O)c1ccc(C)cc1)oc1ccccc12 (centres unmarked)  GBM10 spheroids  activity in spheroids (in words)  loss of activity
3  COc1cc2c(cc1NC(=O)C1CCC(=O)N1S(=O)(=O)c1ccc(C)cc1)oc1ccc(Cl)cc12 (centres unmarked)  GBM10 spheroids  activity in spheroids (in words)       no activity
4  COc1cc2c(cc1NC(=O)C1CCC(=O)N1Cc1ccc(C)cc1)oc1ccccc12 (centres unmarked)  GBM10 spheroids  activity in spheroids (in words)  loss of activity
5  COc1cc2c(cc1NC(=O)C1CCC(=O)N1)oc1ccccc12 (centres unmarked)  GBM10 spheroids  activity in spheroids (in words)  loss of activity
